tested on: MDA-MB-231; experiment: Antiproliferative activity against human MDA-MB-231 cells after 72 hrs by CellTiter-Glo luminescent assay; assay type: functional, cell-based; details: MDA-MB-231, 72 h
Below, each entry is listed with its recorded log10(IC50).
Annotation: log10 of IC50, µM basis.

{"columns": ["mol.smiles", "log10(IC50)"],
 "data": [
  ["COc1cc(OC)c2c(c1Cl)O[C@]1(C2=O)C(OCc2ccccc2)=CC(=O)C[C@H]1C", 0.23],
  ["COc1cc(OC)c2c(c1Cl)O[C@]1(C2=O)C(O[C@H](C)c2ccccc2)=CC(=O)C[C@H]1C", 1.23],
  ["COc1cc(OC)c2c(c1Cl)O[C@]1(C2=O)C(NCc2ccccc2)=CC(=O)C[C@H]1C", 0.51]
]}

// query Value wanted: log10(IC50) (MDA-MB-231) of entry COc1cc(OC)c2c(c1Cl)O[C@]1(C2=O)C(NCc2ccc(C)cc2)=CC(=O)C[C@H]1C
// result 0.91

// query API: value(readout= log10(IC50), system= MDA-MB-231, query= COc1cc(OC)c2c(c1Cl)O[C@]1(C2=O)C(OCc2ccc(C)cc2)=CC(=O)C[C@H]1C )
// result 0.23

// query GET /values?readout=log10(IC50)&system=MDA-MB-231&item= COc1cc(OC)c2c(c1Cl)O[C@]1(C2=O)C(N(C)Cc2ccccc2)=CC(=O)C[C@H]1C
// result 0.54

// query Hi! What's the reported log10(IC50) for COc1cc(OC)c2c(c1Cl)O[C@]1(C2=O)C(OCc2ccccc2)=C/C(=N/O)C[C@H]1C on MDA-MB-231?
// result 0.15

// query Give log10(IC50) (MDA-MB-231) of the following compound: COc1cc(OC)c2c(c1Cl)O[C@]1(C2=O)C(O[C@@H](C)c2ccccc2)=CC(=O)C[C@H]1C
// result 0.85

// query Could you share what log10(IC50) was measured for COc1cc(OC)c2c(c1Cl)O[C@]1(C2=O)C(NCc2ccc(F)cc2)=CC(=O)C[C@H]1C , tested on MDA-MB-231?
// result 0.72

====

test: Stability in rat plasma assessed as compound remaining at 1 uM after 120 mins by LC-MS/MS method; type: ADME, cell-free; details: read-out: Stability
observable: remaining at 2 h, 1 µM (%)
Number only, in %; omit the unit.

Would you please look over these solved cases?
{"columns": ["compound", "remaining at 2 h, 1 µM (%)"],
 "data": [
  ["COC1=CC(=O)C[C@@H](C)[C@]12Oc1c(Cl)c(OC)cc(OC)c1C2=O [GRISEOFULVIN]", 107],
  ["COc1cc(OC)c2c(c1Cl)O[C@]1(C2=O)C(NCc2ccccc2)=CC(=O)C[C@H]1C", 116],
  ["COc1cc(OC)c2c(c1Cl)O[C@]1(C2=O)C(N(C)Cc2ccccc2)=CC(=O)C[C@H]1C", 106],
  ["COc1cc(OC)c2c(c1Cl)O[C@]1(C2=O)C(OCc2ccc(C)cc2)=CC(=O)C[C@H]1C", 89],
  ["COc1cc(OC)c2c(c1Cl)O[C@]1(C2=O)C(OCc2ccccc2)=CC(=O)C[C@H]1C", 101]
]}

// query # input compound: COc1cc(OC)c2c(c1Cl)O[C@]1(C2=O)C(NCc2ccc(F)cc2)=CC(=O)C[C@H]1C ; wanted: its remaining at 2 h, 1 µM
// result 92

// query Item under review: COc1cc(OC)c2c(c1Cl)O[C@]1(C2=O)C(NCc2ccc(C)cc2)=CC(=O)C[C@H]1C . Reported remaining at 2 h, 1 µM?
// result 111

// query Consider the compound shown here: COc1cc(OC)c2c(c1Cl)O[C@]1(C2=O)C(OCc2ccccc2)=C/C(=N/O)C[C@H]1C What is its recorded remaining at 2 h, 1 µM?
// result 102

====

experiment: Fraction unbound in rat plasma at 5 uM by LC-MS/MS method; format: ADME, cell-free
observable: fraction unbound at 5 µM
Quick one: just the number, no unit, thanks!

For orientation, consider the following solved cases.
{"columns": ["mol.smiles", "value"],
 "data": [
  ["COc1cc(OC)c2c(c1Cl)O[C@]1(C2=O)C(OCc2ccc(C)cc2)=CC(=O)C[C@H]1C", 0.018],
  ["COc1cc(OC)c2c(c1Cl)O[C@]1(C2=O)C(NCc2ccc(C)cc2)=CC(=O)C[C@H]1C", 0.055],
  ["COc1cc(OC)c2c(c1Cl)O[C@]1(C2=O)C(OCc2ccccc2)=CC(=O)C[C@H]1C", 0.027]
]}

Note: attention shifts to another entry.
// query Reported fraction unbound at 5 µM for COc1cc(OC)c2c(c1Cl)O[C@]1(C2=O)C(OCc2ccccc2)=C/C(=N/O)C[C@H]1C : what is it?
// result 0.014

====

experiment: Fraction unbound in rat plasma at 5 uM by LC-MS/MS method; format: ADME, cell-free
Parameter: fraction unbound at 5 µM. Scope: all listed entries.
Please respond with just the number, no unit label.

Here's what some known entries look like.
{"columns": ["compound", "fraction unbound at 5 µM"],
 "data": [
  ["COC1=CC(=O)C[C@@H](C)[C@]12Oc1c(Cl)c(OC)cc(OC)c1C2=O [GRISEOFULVIN]", 0.216],
  ["COc1cc(OC)c2c(c1Cl)O[C@]1(C2=O)C(NCc2ccc(F)cc2)=CC(=O)C[C@H]1C", 0.094],
  ["COc1cc(OC)c2c(c1Cl)O[C@]1(C2=O)C(N(C)Cc2ccccc2)=CC(=O)C[C@H]1C", 0.06]
]}

// query Would you kindly share the measured fraction unbound at 5 µM for COc1cc(OC)c2c(c1Cl)O[C@]1(C2=O)C(NCc2ccccc2)=CC(=O)C[C@H]1C ?
// result 0.111

====

experiment: Intrinsic clearance in Sprague-Dawley rat liver microsomes assessed per mg protein at 3 uM preincubated for 45 mins followed by NADPH addition by LC-MS/MS method
observable: CLH (mL/min)
# unit: mL/min | format: bare number

Some compounds with known CLH results, for comparison:
{"columns": ["mol.smiles", "uom", "CLH"],
 "data": [
  ["COc1cc(OC)c2c(c1Cl)O[C@]1(C2=O)C(NCc2ccccc2)=CC(=O)C[C@H]1C", "mL/min", 28],
  ["COc1cc(OC)c2c(c1Cl)O[C@]1(C2=O)C(OCc2ccc(F)cc2)=CC(=O)C[C@H]1C", "mL/min", 30.7],
  ["COc1cc(OC)c2c(c1Cl)O[C@]1(C2=O)C(OCc2ccccc2)=CC(=O)C[C@H]1C", "mL/min", 45],
  ["COc1cc(OC)c2c(c1Cl)O[C@]1(C2=O)C(OCc2ccc(C)cc2)=CC(=O)C[C@H]1C", "mL/min", 60.2]
]}

Here is the next item to consider.
// query Returns the measured CLH for the input compound. Input: COc1cc(OC)c2c(c1Cl)O[C@]1(C2=O)C(OCc2ccccc2)=C/C(=N/O)C[C@H]1C
// result 59.1

====

assay: Stability in mouse plasma assessed as compound remaining at 1 uM after 120 mins by LC-MS/MS method; format: ADME, cell-free; conditions: read-out: Stability
The following compounds are shown together with reported remaining at 2 h, 1 µM values.
// units = %; emit number, no label

Solved entries:
{"columns": ["mol.smiles", "observable", "value"],
 "data": [
  ["COc1cc(OC)c2c(c1Cl)O[C@]1(C2=O)C(N(C)Cc2ccccc2)=CC(=O)C[C@H]1C", "remaining at 2 h, 1 µM", 104],
  ["COc1cc(OC)c2c(c1Cl)O[C@]1(C2=O)C(NCc2ccc(F)cc2)=CC(=O)C[C@H]1C", "remaining at 2 h, 1 µM", 108]
]}

// query Which remaining at 2 h, 1 µM is listed for COc1cc(OC)c2c(c1Cl)O[C@]1(C2=O)C(OCc2ccc(C)cc2)=CC(=O)C[C@H]1C ?
// result 102

// query What value of remaining at 2 h, 1 µM has been reported for the following compound? COc1cc(OC)c2c(c1Cl)O[C@]1(C2=O)C(NCc2ccc(C)cc2)=CC(=O)C[C@H]1C
// result 107

// query Returns the measured remaining at 2 h, 1 µM for the input compound. Input: COc1cc(OC)c2c(c1Cl)O[C@]1(C2=O)C(NCc2ccccc2)=CC(=O)C[C@H]1C
// result 117

====

test: Stability in mouse plasma assessed as compound remaining at 1 uM after 120 mins by LC-MS/MS method; assay type: ADME, cell-free; conditions: read-out: Stability
observable: remaining at 2 h, 1 µM (%)
Answer with a number only, understood to be in %.

{"columns": ["compound", "remaining at 2 h, 1 µM, %"],
 "data": [
  ["COc1cc(OC)c2c(c1Cl)O[C@]1(C2=O)C(OCc2ccccc2)=C/C(=N/O)C[C@H]1C", 87],
  ["COc1cc(OC)c2c(c1Cl)O[C@]1(C2=O)C(OCc2ccccc2)=CC(=O)C[C@H]1C", 91]
]}

Turning to the following compound.
// query I have this compound here, COC1=CC(=O)C[C@@H](C)[C@]12Oc1c(Cl)c(OC)cc(OC)c1C2=O [GRISEOFULVIN] , and I need its recorded remaining at 2 h, 1 µM.
// result 107

Hey, just so you know, these numbers are from ChEMBL document CHEMBL4014282.
